The measurements presented in this section are drawn from PubChem BioAssay AID708.

- protocolNotes: A340 optical interference by library compounds – biochemical, MLSMR library, data from PS, PMK, MK assays, artefact control, profiling panel (AID 708);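 further: initial absorbance extrapolated from kinetic A340 decline of NADH oxidation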
- experimentalParameters: compound absorbance at 340 nm, fold over control; at 10 µM; stronger effect = higher value
Out of some 65,000 compounds screened, fewer than 10 were called active. These entries were drawn from the full list.
This section presents molecules with their documented fold change values.
Number, no unit, nothing else.

Some molecules with recorded fold change:
> print(dat)
                                    molecule      measure  experimentalresult
 1                  O=C(NC1CCCC1)c1ccc(Br)s1  fold change                1.03
 2  COC(=O)CNC(=O)c1ccc2c(c1)S(=O)(=O)c1ccccc1C2=O  fold change                1.02
 3  O=C(Cn1nc(C(F)(F)F)c2c1CCC2)NCc1ccc(F)cc1  fold change                1.04
 4  CCN(CC)S(=O)(=O)c1ccc2nc(COC(=O)c3n[nH]c4ccccc34)[nH]c2c1  fold change                1.03
 5  COc1c(O)cccc1-c1nnn(CCC(=O)OCC(=O)c2ccccc2)n1  fold change                1.01
 6  CCOC(=O)c1c(NC(=O)CCC(=O)NCc2ccco2)sc2c1CCCC2  fold change                1.03
 7  CS(=O)(=O)N(C(=O)NC(=O)NC1CCS(=O)(=O)C1)C1CCCCC1 (stereo not drawn)  fold change                1.04
 8  CC(=O)c1cccc(NC(=O)N2CCCC2C(=O)NCCC(C)C)c1 (stereo not drawn)  fold change                   1
 9  CCC(=O)N1CCc2cc(S(=O)(=O)NC(C(=O)N3CCc4ccccc4C3)C(C)C)ccc21 (stereo not drawn)  fold change                   1
10            CCS(=O)(=O)NCCc1ccc(OC)c(OC)c1  fold change                1.02

// sample CCCc1cc(=O)[nH]c(SCC(=O)OCc2ccccc2)n1 , its fold change was 1.02

// sample COc1ccccc1N1CCN(C(=O)c2c(-c3c(Cl)cccc3Cl)noc2C)CC1 , its fold change was 0.98
